Reported Alkylating activity is given for each of the following compounds.
- assay_summary: Alkylating activity (0.1 mM) was determined at pH 7.4; expressed as OD (540n m)/mM of drug)
- Assay type: ADME
- experimental_setup: pH 7.4, 100 µM
A bare number is all that is needed in reply.

Guide cases for Alkylating activity, answers given:
- compound: "Cc1ccc(NC(=O)c2ccc(N)cc2)cc1Nc1nccc(-c2cccnc2)n1"
  test_value: 0.0002
- compound: "COCCN=NNc1ccc(C(=O)Nc2cccc(Nc3nccc(-c4cccnc4)n3)c2)cc1"
  test_value: 0.0002
- compound: "Cn1nnc2c(C(N)=O)ncn2c1=O [TEMOZOLOMIDE]"
  test_value: 0.0013
- compound: "Cc1ccc(NC(=O)c2ccc(N=NN(C)CO)cc2)cc1Nc1nccc(-c2cccnc2)n1"
  test_value: 0.0015
- compound: "Cc1ccc(NC(=O)c2ccc(/N=N/N(C)CCCl)cc2)cc1Nc1nccc(-c2cccnc2)n1"
  test_value: 0.00014

# input for lookup
Consider the compound shown here: Cc1ccc(NC(=O)c2ccc(/N=N/N(C)C)cc2)cc1Nc1nccc(-c2cccnc2)n1 What is its recorded Alkylating activity?
0.0002

====

- target: Tyrosine-protein kinase ABL (Homo sapiens, UniProt P00519+P42684)
- assay_summary: Inhibition of Abl tyrosine kinase
- Format: protein assay
measurement_label: IC50 (µM)
# number only, unit µM dropped from output

Reference set, count: 3
- smiles_string: "Cc1ccc(NC(=O)c2ccc(/N=N/N(C)C)cc2)cc1Nc1nccc(-c2cccnc2)n1"
  unit_info: "µM"
  IC50: 0.1946
- smiles_string: "COCCN=NNc1ccc(C(=O)Nc2cccc(Nc3nccc(-c4cccnc4)n3)c2)cc1"
  unit_info: "µM"
  IC50: 0.903
- smiles_string: "Cc1ccc(NC(=O)c2ccc(/N=N/N(C)CCCl)cc2)cc1Nc1nccc(-c2cccnc2)n1"
  unit_info: "µM"
  IC50: 0.8496

Find the measured IC50: item c1cc(N/N=N/CCN2CCOCC2)cc(Nc2nccc(-c3cccnc3)n2)c1 , target or system Tyrosine-protein kinase ABL (Homo sapiens, UniProt P00519+P42684).
10

Provide value of IC50 for this record tested with Tyrosine-protein kinase ABL (Homo sapiens, UniProt P00519+P42684): COCC/N=N/Nc1cccc(Nc2nccc(-c3cccnc3)n2)c1
8.6

Lookup: IC50 / Tyrosine-protein kinase ABL (Homo sapiens, UniProt P00519+P42684) / Nc1ccc(C(=O)Nc2cccc(Nc3nccc(-c4cccnc4)n3)c2)cc1
4.89

====

- target: Tyrosine-protein kinase ABL (Homo sapiens, UniProt P00519+P42684)
- assay_summary: Inhibition of Abl tyrosine kinase
- Assay type: protein assay
Measured IC50, listed per entry for reference.

Given the compound Cc1ccc(NC(=O)c2ccc(N)cc2)cc1Nc1nccc(-c2cccnc2)n1 , what is its reported IC50?
> 10 µM

// IC50 lookup, key: Cn1nnc2c(C(N)=O)ncn2c1=O [TEMOZOLOMIDE]
> 100 µM

// query IC50 value for entry Nc1cccc(Nc2nccc(-c3cccnc3)n2)c1
> 10 µM

Cited source: ChEMBL document CHEMBL1144977
